Tested on: protease according to SEQ ID NO: 3
Assay: Relative proteolytic activity with reversible inhibitor in liquid surfactant preparation (Example 1)
Format: biochemical
Conditions: Table 2; boric acid in amount inhibiting starting enzyme by 20-40%; 50% conc. surfactant preparation, 0.92 mM AAPF, 25° C., pH 8.6; relative to same protease without inhibitor
Excerpt: The relative activity to be determined in process step c) of the hydrolytic enzyme modified in process step b) is given by [measured activity of the hydrolytic enzyme modified in process step b) in the presence of the component that stabilizes the hydrolytic enzyme] divided by [measured activity of the hydrolytic enzyme modified in process step b) in the absence of the component that stabilizes the hydrolytic enzyme] multiplied by 100. […]
Decision: relative activity, Boric acid compared against 60%; not below it gives YES, below it gives NO.

MOLECULE	ASSIGNED CLASS
S166G/Q191R: protease of SEQ ID NO: 3 with amino acid substitutions S166G and Q191R in the count according to SEQ ID NO: 1 (protein, listed as Bacillus lentus) AQSVPWGISRVQAPAAHNRGLTGSGVKVAVLDTGISTHPDLNIRGGASFVPGEPSTQDGNGHGTHVAGTIAALNNSIGVLGVAPSAELYAVKVLGADGEGAISSIAQGLEWAGNNGMHVANLSLGSPSPSATLEQAVNSATSRGVLVVAASGNSGASSIGYPARYANAMAVGATDQNNNRASFSRYGAGLDIVAPGVNVQSTYPGSTYASLNGTSMATPHVAGAAALVKQKNPSWSNVQIRNHLKNTATSLGSTNLYGSGLVNAEAATR	NO
Q191R: protease of SEQ ID NO: 3 with amino acid substitution Q191R in the count according to SEQ ID NO: 1 (protein, listed as Bacillus lentus) AQSVPWGISRVQAPAAHNRGLTGSGVKVAVLDTGISTHPDLNIRGGASFVPGEPSTQDGNGHGTHVAGTIAALNNSIGVLGVAPSAELYAVKVLGADGEGAISSIAQGLEWAGNNGMHVANLSLGSPSPSATLEQAVNSATSRGVLVVAASGNSGASSISYPARYANAMAVGATDQNNNRASFSRYGAGLDIVAPGVNVQSTYPGSTYASLNGTSMATPHVAGAAALVKQKNPSWSNVQIRNHLKNTATSLGSTNLYGSGLVNAEAATR	YES
F189R: protease of SEQ ID NO: 3 with amino acid substitution F189R in the count according to SEQ ID NO: 1 (protein, listed as Bacillus lentus) AQSVPWGISRVQAPAAHNRGLTGSGVKVAVLDTGISTHPDLNIRGGASFVPGEPSTQDGNGHGTHVAGTIAALNNSIGVLGVAPSAELYAVKVLGADGEGAISSIAQGLEWAGNNGMHVANLSLGSPSPSATLEQAVNSATSRGVLVVAASGNSGASSISYPARYANAMAVGATDQNNNRASRSQYGAGLDIVAPGVNVQSTYPGSTYASLNGTSMATPHVAGAAALVKQKNPSWSNVQIRNHLKNTATSLGSTNLYGSGLVNAEAATR	NO

Determine whether this molecule has relative activity, Boric acid no lower than 60%: A187D: protease of SEQ ID NO: 3 with amino acid substitution A187D in the count according to SEQ ID NO: 1 (protein, listed as Bacillus lentus) AQSVPWGISRVQAPAAHNRGLTGSGVKVAVLDTGISTHPDLNIRGGASFVPGEPSTQDGNGHGTHVAGTIAALNNSIGVLGVAPSAELYAVKVLGADGEGAISSIAQGLEWAGNNGMHVANLSLGSPSPSATLEQAVNSATSRGVLVVAASGNSGASSISYPARYANAMAVGATDQNNNRDSFSQYGAGLDIVAPGVNVQSTYPGSTYASLNGTSMATPHVAGAAALVKQKNPSWSNVQIRNHLKNTATSLGSTNLYGSGLVNAEAATR
NO

// inclusive: relative activity, Boric acid at least 60%? input: S166G: protease of SEQ ID NO: 3 with amino acid substitution S166G in the count according to SEQ ID NO: 1 (protein, listed as Bacillus lentus) AQSVPWGISRVQAPAAHNRGLTGSGVKVAVLDTGISTHPDLNIRGGASFVPGEPSTQDGNGHGTHVAGTIAALNNSIGVLGVAPSAELYAVKVLGADGEGAISSIAQGLEWAGNNGMHVANLSLGSPSPSATLEQAVNSATSRGVLVVAASGNSGASSIGYPARYANAMAVGATDQNNNRASFSQYGAGLDIVAPGVNVQSTYPGSTYASLNGTSMATPHVAGAAALVKQKNPSWSNVQIRNHLKNTATSLGSTNLYGSGLVNAEAATR
YES
